All figures here come from ChEMBL document CHEMBL1126036.

Let's look at some molecules and their measured solubility.
Measurement protocol: Aqueous solubility
Assay type: physicochemical
Applied conditions: pH 7.4 phosphate buffer; read-out: S

- Molecule: "NC(=O)CC[C@H](N)C(=O)NC1CCN(c2nc3c(cc2F)c(=O)c(C(=O)O)cn3C2CC2)C1 (some centres undefined)"
  solubility: "50 µg/mL"
- Molecule: "C[C@H](N)C(=O)NC1CCN(c2nc3c(cc2F)c(=O)c(C(=O)O)cn3C2CC2)C1.Cl.O (some centres undefined)"
  solubility: "80 µg/mL"
- Molecule: "C[C@@H](N)C(=O)NC1CCN(c2nc3c(cc2F)c(=O)c(C(=O)O)cn3C2CC2)C1.Cl.O (some centres undefined)"
  solubility: "60 µg/mL"
- Molecule: "C[C@H](N)C(=O)N[C@H]1CCN(c2nc3c(cc2F)c(=O)c(C(=O)O)cn3C2CC2)C1.Cl.O"
  solubility: "20 µg/mL"

###

Tested on: Enterococcus faecalis
Measurement protocol: In vitro antibacterial activity against gram positive Enterococcus faecalis MGH-2.
Assay type: functional
Measured property: MIC (µg/mL)

- Compound: "C[C@H](N)C(=O)NC1CCN(c2c(F)cc3c(=O)c(C(=O)O)cn(C4CC4)c3c2F)C1.Cl.O (stereo partly drawn)"
  Result unit: "µg/mL"
  Qualifier symbol: "="
  Recorded measurement: 0.4
- Compound: "C[C@@H](N)C(=O)NC1CCN(c2cc3c(cc2F)c(=O)c(C(=O)O)cn3C2CC2)C1.Cl.O (stereo partly drawn)"
  Result unit: "µg/mL"
  Qualifier symbol: "="
  Recorded measurement: 0.2
- Compound: "Cl.NCCCC[C@H](N)C(=O)NC1CCN(c2cc3c(cc2F)c(=O)c(C(=O)O)cn3C2CC2)C1.O (stereo partly drawn)"
  Result unit: "µg/mL"
  Qualifier symbol: ">"
  Recorded measurement: 25
- Compound: "Cl.NC1CCN(c2c(F)cc3c(=O)c(C(=O)O)cn(C4CC4)c3c2F)C1 (stereo not drawn)"
  Result unit: "µg/mL"
  Qualifier symbol: "="
  Recorded measurement: 0.05
- Compound: "Nc1c(F)c(N2CCC(N)C2)c(F)c2c1c(=O)c(C(=O)O)cn2C1CC1 (stereo not drawn)"
  Result unit: "µg/mL"
  Qualifier symbol: "="
  Recorded measurement: 0.025
- Compound: "C[C@H](N)C(=O)N[C@@H]1CCN(c2nc3c(cc2F)c(=O)c(C(=O)O)cn3C2CC2)C1.Cl.O"
  Result unit: "µg/mL"
  Qualifier symbol: "="
  Recorded measurement: 3.1
- Compound: "Cl.NCCCC[C@H](N)C(=O)NC1CCN(c2nc3c(cc2F)c(=O)c(C(=O)O)cn3C2CC2)C1.O (stereo partly drawn)"
  Result unit: "µg/mL"
  Qualifier symbol: ">"
  Recorded measurement: 25
- Compound: "C[C@H](N)C(=O)N[C@@H]1CCN(c2c(F)c(N)c3c(=O)c(C(=O)O)cn(C4CC4)c3c2F)C1.Cl.O"
  Result unit: "µg/mL"
  Qualifier symbol: "="
  Recorded measurement: 0.4

###

Experimental target: DNA gyrase (Escherichia coli) (UniProt P0AES6+P0AES4)
Measurement protocol: In vitro concentration inhibiting DNA gyrase induced cleavage in Escherichia coli H560.
Type: functional
Cleavage strictly less than 2 µg/mL = Condition met. Otherwise Condition not met.

- Molecule: "Cl.NC1CCN(c2c(F)cc3c(=O)c(C(=O)O)cn(C4CC4)c3c2F)C1 (stereo not given)"
  Answer label: "Condition met"
- Molecule: "C[C@@H](N)C(=O)NC1CCN(c2nc3c(cc2F)c(=O)c(C(=O)O)cn3C2CC2)C1.Cl.O (stereo not given in full)"
  Answer label: "Condition not met"
- Molecule: "C[C@H](N)C(=O)N[C@H]1CCN(c2nc3c(cc2F)c(=O)c(C(=O)O)cn3C2CC2)C1.Cl.O"
  Answer label: "Condition not met"
- Molecule: "C[C@@H](N)C(=O)NC1CCN(c2c(F)cc3c(=O)c(C(=O)O)cn(C4CC4)c3c2F)C1.Cl.O (stereo not given in full)"
  Answer label: "Condition not met"
- Molecule: "Cl.N[C@@H](Cc1ccccc1)C(=O)NC1CCN(c2cc3c(cc2F)c(=O)c(C(=O)O)cn3C2CC2)C1.O (stereo not given in full)"
  Answer label: "Condition not met"
- Molecule: "Cl.Nc1c(F)c(N2CC[C@@H](N)C2)c(F)c2c1c(=O)c(C(=O)O)cn2C1CC1.O"
  Answer label: "Condition met"
- Molecule: "C[C@H](N)C(=O)N[C@@H]1CCN(c2nc3c(cc2F)c(=O)c(C(=O)O)cn3C2CC2)C1.Cl.O"
  Answer label: "Condition met"
- Molecule: "C[C@@H]1CN(c2c(F)c(N)c3c(=O)c(C(=O)O)cn(C4CC4)c3c2F)C[C@H](C)N1"
  Answer label: "Condition not met"
- Molecule: "Cl.NCC(=O)NC1CCN(c2c(F)c(N)c3c(=O)c(C(=O)O)cn(C4CC4)c3c2F)C1.O (stereo not given)"
  Answer label: "Condition not met"
- Molecule: "C[C@H](N)C(=O)N[C@@H]1CCN(c2c(F)cc3c(=O)c(C(=O)O)cn(C4CC4)c3c2F)C1.Cl.O"
  Answer label: "Condition not met"

###

Let's look at some compounds and their measured Cleavage.
Experimental target: DNA gyrase (Escherichia coli) (UniProt P0AES6+P0AES4)
Measurement protocol: In vitro concentration inhibiting DNA gyrase induced cleavage in Escherichia coli H560.
Format: functional

- Compound: "C[C@H](N)C(=O)N[C@H]1CCN(c2c(F)c(N)c3c(=O)c(C(=O)O)cn(C4CC4)c3c2F)C1.Cl.O"
  Cleavage / µg/mL: 2.5
- Compound: "C[C@H](N)C(=O)N[C@H]1CCN(c2c(F)cc3c(=O)c(C(=O)O)cn(C4CC4)c3c2F)C1.Cl.O"
  Cleavage / µg/mL: 2.5
- Compound: "Cl.N[C@@H](Cc1ccccc1)C(=O)NC1CCN(c2c(F)cc3c(=O)c(C(=O)O)cn(C4CC4)c3c2F)C1.O (some centres undefined)"
  Cleavage / µg/mL: 7.5
- Compound: "Cl.NCC(=O)NC1CCN(c2nc3c(cc2F)c(=O)c(C(=O)O)cn3C2CC2)C1.O (centres undefined)"
  Cleavage / µg/mL: 2.5

###

Test system: Staphylococcus aureus
Measurement protocol: In vitro antibacterial activity against gram positive Staphylococcus aureus UC76.
Format: functional
Let's look at some compounds and their measured MIC.

- Compound: "Cl.Nc1c(F)c(N2CC[C@H](N)C2)c(F)c2c1c(=O)c(C(=O)O)cn2C1CC1.O"
  MIC, µg/mL: 0.003
- Compound: "C[C@@H](N)C(=O)NC1CCN(c2c(F)cc3c(=O)c(C(=O)O)cn(C4CC4)c3c2F)C1.Cl.O (stereo partly specified)"
  MIC, µg/mL: 0.006
- Compound: "C[C@@H]1CN(c2c(F)c(N)c3c(=O)c(C(=O)O)cn(C4CC4)c3c2F)C[C@H](C)N1"
  MIC, µg/mL: 0.025
- Compound: "Cl.NCC(=O)NC1CCN(c2nc3c(cc2F)c(=O)c(C(=O)O)cn3C2CC2)C1.O (stereo unspecified)"
  MIC, µg/mL: 0.4
- Compound: "Cl.N[C@H]1CCN(c2c(F)cc3c(=O)c(C(=O)O)cn(C4CC4)c3c2F)C1.O"
  MIC, µg/mL: 0.003
- Compound: "Cl.NCCCC[C@H](N)C(=O)NC1CCN(c2c(F)cc3c(=O)c(C(=O)O)cn(C4CC4)c3c2F)C1.O (stereo partly specified)"
  MIC, µg/mL: 0.2
- Compound: "Cl.NCC(=O)NC1CCN(c2c(F)c(N)c3c(=O)c(C(=O)O)cn(C4CC4)c3c2F)C1.O (stereo unspecified)"
  MIC, µg/mL: 0.1
- Compound: "Cl.N[C@@H](Cc1ccccc1)C(=O)NC1CCN(c2c(F)cc3c(=O)c(C(=O)O)cn(C4CC4)c3c2F)C1.O (stereo partly specified)"
  MIC, µg/mL: 1.6
- Compound: "Nc1c(F)c(N2CCC(N)C2)c(F)c2c1c(=O)c(C(=O)O)cn2C1CC1 (stereo unspecified)"
  MIC, µg/mL: 0.006
- Compound: "C[C@H](N)C(=O)NC1CCN(c2c(F)cc3c(=O)c(C(=O)O)cn(C4CC4)c3c2F)C1.Cl.O (stereo partly specified)"
  MIC, µg/mL: 0.05
- Compound: "CC(C)[C@H](N)C(=O)NC1CCN(c2nc3c(cc2F)c(=O)c(C(=O)O)cn3C2CC2)C1.Cl.O (stereo partly specified)"
  MIC, µg/mL: 0.4
- Compound: "Cl.NCCCC[C@H](N)C(=O)NC1CCN(c2cc3c(cc2F)c(=O)c(C(=O)O)cn3C2CC2)C1.O (stereo partly specified)"
  MIC, µg/mL: 3.1
- Compound: "C[C@@H](N)C(=O)NC1CCN(c2nc3c(cc2F)c(=O)c(C(=O)O)cn3C2CC2)C1.Cl.O (stereo partly specified)"
  MIC, µg/mL: 0.05
- Compound: "Cl.NCCCC[C@H](N)C(=O)NC1CCN(c2nc3c(cc2F)c(=O)c(C(=O)O)cn3C2CC2)C1.O (stereo partly specified)"
  MIC, µg/mL: 6.3
- Compound: "Cl.NC1CCN(c2c(F)cc3c(=O)c(C(=O)O)cn(C4CC4)c3c2F)C1 (stereo unspecified)"
  MIC, µg/mL: 0.006
- Compound: "C[C@H](N)C(=O)N[C@H]1CCN(c2c(F)cc3c(=O)c(C(=O)O)cn(C4CC4)c3c2F)C1.Cl.O"
  MIC, µg/mL: 0.025
- Compound: "NC1CCN(c2nc3c(cc2F)c(=O)c(C(=O)O)cn3C2CC2)C1 (stereo unspecified)"
  MIC, µg/mL: 0.013
- Compound: "Cl.NCC(=O)NC1CCN(c2cc3c(cc2F)c(=O)c(C(=O)O)cn3C2CC2)C1.O (stereo unspecified)"
  MIC, µg/mL: 0.4
- Compound: "N[C@H]1CCN(c2nc3c(cc2F)c(=O)c(C(=O)O)cn3C2CC2)C1"
  MIC, µg/mL: 0.013
- Compound: "Cl.N[C@@H]1CCN(c2c(F)cc3c(=O)c(C(=O)O)cn(C4CC4)c3c2F)C1.O"
  MIC, µg/mL: 0.006
- Compound: "NC(=O)CC[C@H](N)C(=O)NC1CCN(c2nc3c(cc2F)c(=O)c(C(=O)O)cn3C2CC2)C1 (stereo partly specified)"
  MIC, µg/mL: 0.8
- Compound: "C[C@H](N)C(=O)N[C@@H]1CCN(c2c(F)c(N)c3c(=O)c(C(=O)O)cn(C4CC4)c3c2F)C1.Cl.O"
  MIC, µg/mL: 0.025
- Compound: "Cl.N[C@@H](Cc1ccccc1)C(=O)NC1CCN(c2cc3c(cc2F)c(=O)c(C(=O)O)cn3C2CC2)C1.O (stereo partly specified)"
  MIC, µg/mL: 0.2
- Compound: "C[C@H](N)C(=O)N[C@H]1CCN(c2c(F)c(N)c3c(=O)c(C(=O)O)cn(C4CC4)c3c2F)C1.Cl.O"
  MIC, µg/mL: 0.025
- Compound: "C[C@@H](N)C(=O)NC1CCN(c2cc3c(cc2F)c(=O)c(C(=O)O)cn3C2CC2)C1.Cl.O (stereo partly specified)"
  MIC, µg/mL: 0.05
- Compound: "Cl.N[C@@H](Cc1ccccc1)C(=O)NC1CCN(c2nc3c(cc2F)c(=O)c(C(=O)O)cn3C2CC2)C1.O (stereo partly specified)"
  MIC, µg/mL: 0.4
- Compound: "Cl.NCC(=O)NC1CCN(c2c(F)cc3c(=O)c(C(=O)O)cn(C4CC4)c3c2F)C1.O (stereo unspecified)"
  MIC, µg/mL: 0.1
- Compound: "NC1CCN(c2nc3c(cc2F)c(=O)c(C(=O)O)cn3-c2ccc(F)cc2F)C1 (stereo unspecified)"
  MIC, µg/mL: 0.025
- Compound: "C[C@H](N)C(=O)N[C@@H]1CCN(c2c(F)cc3c(=O)c(C(=O)O)cn(C4CC4)c3c2F)C1.Cl.O"
  MIC, µg/mL: 0.2
- Compound: "N[C@@H]1CCN(c2nc3c(cc2F)c(=O)c(C(=O)O)cn3C2CC2)C1"
  MIC, µg/mL: 0.05
- Compound: "C[C@H](N)C(=O)NC1CCN(c2nc3c(cc2F)c(=O)c(C(=O)O)cn3C2CC2)C1.Cl.O (stereo partly specified)"
  MIC, µg/mL: 0.8
- Compound: "Cl.NC1CCN(c2cc3c(cc2F)c(=O)c(C(=O)O)cn3C2CC2)C1.O (stereo unspecified)"
  MIC, µg/mL: 0.025
- Compound: "C[C@H](N)C(=O)N[C@H]1CCN(c2nc3c(cc2F)c(=O)c(C(=O)O)cn3C2CC2)C1.Cl.O"
  MIC, µg/mL: 0.8
- Compound: "Cl.Nc1c(F)c(N2CC[C@@H](N)C2)c(F)c2c1c(=O)c(C(=O)O)cn2C1CC1.O"
  MIC, µg/mL: 0.006
- Compound: "C[C@H](N)C(=O)N[C@@H]1CCN(c2nc3c(cc2F)c(=O)c(C(=O)O)cn3C2CC2)C1.Cl.O"
  MIC, µg/mL: 0.8
- Compound: "C[C@H](N)C(=O)NC1CCN(c2cc3c(cc2F)c(=O)c(C(=O)O)cn3C2CC2)C1.Cl.O (stereo partly specified)"
  MIC, µg/mL: 0.4
